study.target: Ba/F3 cells CD74-ROS1 G2032R (Homo sapiens, UniProt P08922, G2032R)
Construct: fusion of the C-terminus of ROS1 with the N-terminus of various partner proteins; the other entry of the earlier key: CD74 (P04233, HLA class II histocompatibility antigen gamma chain)
Sequence (P08922 1883-2347 G2032R limits assumed): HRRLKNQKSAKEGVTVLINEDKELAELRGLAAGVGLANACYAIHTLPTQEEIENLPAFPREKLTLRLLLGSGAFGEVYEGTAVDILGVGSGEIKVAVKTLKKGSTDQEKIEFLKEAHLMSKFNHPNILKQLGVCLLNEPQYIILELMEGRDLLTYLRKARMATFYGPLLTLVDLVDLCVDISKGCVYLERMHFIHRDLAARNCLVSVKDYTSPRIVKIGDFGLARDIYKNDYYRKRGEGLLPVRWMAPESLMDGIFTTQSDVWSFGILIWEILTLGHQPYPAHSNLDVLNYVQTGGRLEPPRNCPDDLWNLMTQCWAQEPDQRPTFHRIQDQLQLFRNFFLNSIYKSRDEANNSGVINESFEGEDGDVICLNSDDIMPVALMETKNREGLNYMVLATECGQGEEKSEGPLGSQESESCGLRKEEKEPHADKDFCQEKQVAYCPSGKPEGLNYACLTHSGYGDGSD
experimental.protocol: Ba/F3 cell proliferation assay, CD74-ROS1 G2032R
assay.conditions: 72 hours, CellTiter-Glo

{"molecule": "CCn1ncc2c1-c1cnc(N)c(c1)O[C@H](C)c1cc(F)ccc1-c1nc(C)nn1C2", "IC50": "0.1 to 50 nM"}
{"molecule": "CCn1ncc2c1-c1cnc(N)c(c1)OCc1cc(F)ccc1-c1ccnn1C2", "IC50": "50 to 500 nM"}
{"molecule": "CCn1nc(Cl)c2c1-c1cnc(N)c(c1)O[C@H](C)c1cc(F)ccc1-c1nn(C)nc1C2", "IC50": "0.1 to 50 nM"}
{"molecule": "C[C@H]1Oc2cc(cnc2N)-c2c(cnn2C2CCC2)Cn2ncnc2-c2ccc(F)cc21", "IC50": "0.1 to 50 nM"}
{"molecule": "CCn1ncc2c1-c1cnc(N)c(c1)O[C@H](C)c1cc(F)ccc1-c1cc(Br)nn1C2", "IC50": "0.1 to 50 nM"}
{"molecule": "Cc1nc2n(n1)Cc1cnn(CC3CC3)c1-c1cnc(N)c(c1)O[C@H](C)c1cc(F)ccc1-2", "IC50": "0.1 to 50 nM"}
{"molecule": "CCc1noc2c1-c1cnc(N)c(c1)O[C@H](C)c1cc(F)ccc1-c1nn(C)nc1C2", "IC50": "0.1 to 50 nM"}
{"molecule": "C[C@H]1Oc2cc(cnc2N)-c2c(C#N)noc2Cc2nn(C)nc2-c2ccc(F)cc21", "IC50": "0.1 to 50 nM"}
{"molecule": "CCn1ncc2c1-c1cnc(N)c(c1)O[C@H](C)c1cc(F)ccc1-n1ccnc1C2", "IC50": "0.1 to 50 nM"}
{"molecule": "Cc1nc2c(o1)-c1ccc(F)cc1[C@@H](C)Oc1cc(cnc1N)-c1c(c(C)nn1CC1CC1)C2", "IC50": "0.1 to 50 nM"}
{"molecule": "C[C@H]1Oc2cc(cnc2N)-c2c(C#N)cnn2Cc2nccnc2-c2ccc(F)cc21", "IC50": "50 to 500 nM"}
{"molecule": "CCn1ncc2c1-c1cnc(N)c(c1)OC(C)c1cc(F)cnc1-c1ccnn1C2 (centres unmarked)", "IC50": "0.1 to 50 nM"}
{"molecule": "CCn1nnc2c1-c1cnc(N)c(c1)O[C@H](C)c1cc(F)ccc1-c1cc(Cl)nn1C2", "IC50": "0.1 to 50 nM"}
{"molecule": "C[C@H]1Oc2cc(cnc2N)-c2c(cnn2C2CCC2)Cc2nn(C)nc2-c2ccc(F)cc21", "IC50": "0.1 to 50 nM"}
{"molecule": "C[C@H]1Oc2cc(cnc2N)-c2c(cnn2CC2CC2)Cc2ncc(F)cc2-c2ccc(F)cc21", "IC50": "0.1 to 50 nM"}
{"molecule": "CCn1ncc2c1-c1cnc(N)c(c1)O[C@H](C)c1cc(F)ccc1-c1cc(Cl)nn1C2", "IC50": "0.1 to 50 nM"}
{"molecule": "C[C@H]1Oc2cc(cnc2N)-c2c(cnn2C(F)F)Cn2nccc2-c2ccc(F)cc21", "IC50": "0.1 to 50 nM"}
{"molecule": "Cc1nn(CC2CC2)c2c1Cc1nccnc1-c1ccc(F)cc1[C@@H](C)Oc1cc-2cnc1N", "IC50": "0.1 to 50 nM"}
{"molecule": "C[C@H]1Oc2cc(cnc2N)-c2c(cnn2CC(F)F)Cc2nn(C)nc2-c2ccc(F)cc21", "IC50": "0.1 to 50 nM"}
{"molecule": "C[C@H]1Oc2cc(cnc2N)-c2c(CC3CC3)nn(C)c2Cc2nn(C)nc2-c2ccc(F)cc21", "IC50": "0.1 to 50 nM"}
{"molecule": "Cc1nn(CC2CC2)c2c1Cc1nn(C)nc1-c1c(F)cc(F)cc1[C@@H](C)Oc1cc-2cnc1N", "IC50": "0.1 to 50 nM"}
{"molecule": "C[C@H]1Oc2cc(cnc2N)-c2c(cnn2CC(F)F)Cn2nc(Cl)cc2-c2ccc(F)cc21", "IC50": "0.1 to 50 nM"}
{"molecule": "CCn1ncc2c1-c1cnc(N)c(c1)O[C@H](C)c1cc(F)ccc1-c1cc(F)nn1C2", "IC50": "0.1 to 50 nM"}
{"molecule": "C[C@H]1Oc2cc(cnc2N)-c2c(C3CCC3)noc2Cn2ncnc2-c2ccc(F)cc21", "IC50": "0.1 to 50 nM"}
{"molecule": "C[C@H]1Oc2cc(cnc2N)-c2c(cnn2C2CCC2)Cn2ncc(C#N)c2-c2ccc(F)cc21", "IC50": "0.1 to 50 nM"}
{"molecule": "CCc1nn(C)c2c1-c1cnc(N)c(c1)O[C@H](C)c1cc(F)ccc1-c1nn(C)nc1C2", "IC50": "0.1 to 50 nM"}
{"molecule": "CCc1nsc2c1-c1cnc(N)c(c1)O[C@H](C)c1cc(F)ccc1-c1ncnn1C2", "IC50": "0.1 to 50 nM"}
{"molecule": "C[C@H]1Oc2cc(cnc2N)-c2c(c(Cl)nn2CC(F)F)Cc2nn(C)nc2-c2ccc(F)cc21", "IC50": "0.1 to 50 nM"}
{"molecule": "CCn1ncc2c1-c1cnc(N)c(c1)O[C@H](C)c1cc(F)ccc1-c1nccnc1C2", "IC50": "0.1 to 50 nM"}
{"molecule": "CCn1ncc2c1-c1cnc(N)c(c1)O[C@H](C)c1cc(F)ccc1-c1c(F)cnn1C2", "IC50": "0.1 to 50 nM"}
{"molecule": "C[C@H]1Oc2cc(cnc2N)-c2c(cnn2CC2CC2)Cc2nn(C)cc2-c2ccc(F)cc21", "IC50": "0.1 to 50 nM"}
{"molecule": "C[C@H]1Oc2cc(cnc2N)-c2c(C#N)noc2Cn2nccc2-c2ccc(F)cc21", "IC50": "50 to 500 nM"}
